Source: the supplement of paper PMC11908140

variants and their reported 8OG:A repair function score
B1: library; numbered along this chain (parent)
chain: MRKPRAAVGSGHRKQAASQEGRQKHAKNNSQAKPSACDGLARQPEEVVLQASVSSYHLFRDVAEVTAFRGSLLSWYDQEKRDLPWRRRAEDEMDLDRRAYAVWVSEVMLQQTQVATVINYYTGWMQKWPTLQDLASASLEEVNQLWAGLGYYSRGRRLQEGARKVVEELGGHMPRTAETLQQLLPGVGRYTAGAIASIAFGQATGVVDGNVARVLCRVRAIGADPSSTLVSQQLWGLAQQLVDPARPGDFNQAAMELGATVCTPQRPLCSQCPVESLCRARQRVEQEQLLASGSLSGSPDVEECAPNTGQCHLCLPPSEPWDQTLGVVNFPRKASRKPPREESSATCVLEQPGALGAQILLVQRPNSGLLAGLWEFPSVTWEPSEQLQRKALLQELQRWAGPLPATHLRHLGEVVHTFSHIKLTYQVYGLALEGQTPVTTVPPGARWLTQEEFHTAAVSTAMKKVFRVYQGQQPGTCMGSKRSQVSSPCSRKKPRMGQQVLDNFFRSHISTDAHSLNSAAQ

Variants of: B1
Assay: 8OG:A repair function score (normalized; synonymous = 0, nonsense = -1) (normalized log-likelihood score); higher = more repair activity (WT-like);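 further: cells sorted at 72 h after reporter transfection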
Details: with 8OG:A DNA repair reporter (GFP) in HEK-293 MUTYH KO cells
Number only, please.

Worked examples, 4 variants total:
{"columns": ["MUTATION_CODE", "READING"],
 "data": [
  ["Q265I", -0.0274],
  ["P34E", 0.0965],
  ["T228W", -0.106],
  ["G150F", -1.66]
]}

Value of measured 8OG:A repair function score for the entry H57I : -0.613

Value of measured 8OG:A repair function score for the entry R60C : -0.081

Value of measured 8OG:A repair function score for the entry H416F : -0.448

Value of measured 8OG:A repair function score for the entry P404E : 0.341

Value of measured 8OG:A repair function score for the entry I509R : -0.0323
